Target Desc: T1, IL-11 protein (UniProt P20809 22-199, limits assumed)
T1 construct: also called IL-11 antigen
T1 sequence (looked up): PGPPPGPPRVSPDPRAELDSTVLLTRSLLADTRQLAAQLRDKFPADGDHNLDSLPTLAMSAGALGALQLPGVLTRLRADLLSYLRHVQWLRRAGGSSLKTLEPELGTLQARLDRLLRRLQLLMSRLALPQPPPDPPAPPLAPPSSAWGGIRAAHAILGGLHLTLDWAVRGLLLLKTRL
Method Notes: SPR (Biacore), antibody captured, 400 nM IL-11 as analyte
Measurement Kind: Kd (nM)
Give the number; nM is assumed, so skip it.

binder="VH2 + VL1-scFv (scFv, V domains shown, Humanized 5-20E11-5F2; CHO supernatant; Called scFv, but heavy and light vectors were co-transfected) VH: QVQLVQSGAEVKKPGASVKVSCKASDYTFTNYWLGWVRQAPGQGLEWIGHIYPGGGYTNYNEKFKGRVTMTADTSTSTVYMELSSLRSEDTAVYFCARVRSGNDALDFWGQGTLVTVSS VL: EIVLTQSPATLSLSPGERATLSCRASESVDEYGISFMNWYQQKPGQAPRLLIYSASNQGSGIPARFSGSGSGTDFTLTISSLEPEDFAVYYCQQSKEVPWTFGGGTKLEIK" measurement_kind=Kd val=16.7
binder="VH4 + VL1-scFv (scFv, V domains shown, Humanized 5-20E11-5F2; CHO supernatant; Called scFv, but heavy and light vectors were co-transfected) VH: QVQLVQSGAEVKKPGASVKVSCKASDYTFTNYWLGWVRQAPGHGLEWIGHIYPGGGYTNYNEKFKGRATLTADTSTSTVYMELSSLRSEDTAVYFCARVRSGNDALDFWGQGTLVTVSS VL: EIVLTQSPATLSLSPGERATLSCRASESVDEYGISFMNWYQQKPGQAPRLLIYSASNQGSGIPARFSGSGSGTDFTLTISSLEPEDFAVYYCQQSKEVPWTFGGGTKLEIK" measurement_kind=Kd val=17.2
binder="VH3 + VL4-scFv (scFv, V domains shown, Humanized 5-20E11-5F2; CHO supernatant; Called scFv, but heavy and light vectors were co-transfected) VH: QVQLVQSGAEVKKPGASVKVSCKASDYTFTNYWLGWVRQAPGQGLEWIGHIYPGGGYTNYNEKFKGRATLTADTSTSTVYMELSSLRSEDTAVYFCARVRSGNDALDFWGQGTLVTVSS VL: EIVLTQSPATLSLSPGERATLSCRASESVDEYGISFMNWFQQKPGQAPRLLIYSASNQGSGIPARFSGSGSGTDFTLTISSLEPEDFAMYFCQQSKEVPWTFGGGTKLEIK" measurement_kind=Kd val=13.3
binder="VH1 + VL4-scFv (scFv, V domains shown, Humanized 5-20E11-5F2; CHO supernatant; Called scFv, but heavy and light vectors were co-transfected) VH: QVQLVQSGAEVKKPGASVKVSCKASDYTFTNYWLGWVRQAPGQGLEWMGHIYPGGGYTNYNEKFKGRVTMTRDTSTSTVYMELSSLRSEDTAVYYCARVRSGNDALDFWGQGTLVTVSS VL: EIVLTQSPATLSLSPGERATLSCRASESVDEYGISFMNWFQQKPGQAPRLLIYSASNQGSGIPARFSGSGSGTDFTLTISSLEPEDFAMYFCQQSKEVPWTFGGGTKLEIK" measurement_kind=Kd val=11.7

Alright, here's another binder for you.
Problem: # get_value(readout='Kd', item= VH4 + VL3-scFv (scFv, V domains shown, Humanized 5-20E11-5F2; CHO supernatant; Called scFv, but heavy and light vectors were co-transfected) VH: QVQLVQSGAEVKKPGASVKVSCKASDYTFTNYWLGWVRQAPGHGLEWIGHIYPGGGYTNYNEKFKGRATLTADTSTSTVYMELSSLRSEDTAVYFCARVRSGNDALDFWGQGTLVTVSS VL: EIVLTQSPATLSLSPGERATLSCRASESVDEYGISFMNWFQQKPGQAPRLLIYSASNQGSGIPARFSGSGSGTDFTLTISSLEPEDFAVYFCQQSKEVPWTFGGGTKLEIK )
Result: 11.2
